# credit: paper PMC7470102

Each record here notes measured melting point.

Find the recorded melting point belonging to COc1ccc(-c2nc3ccc(-c4nnc(SCC(=O)N5CCN(c6ccccc6)CC5)o4)cc3[nH]2)cc1 and report it.
166.7 to 169.2 °C

Find the recorded melting point belonging to CCN1CCN(C(=O)CSc2nnc(-c3ccc4nc(-c5ccc(OC)cc5)[nH]c4c3)o2)CC1 and report it.
180.4 to 181.9 °C

Find the recorded melting point belonging to COc1ccc(-c2nc3ccc(-c4nnc(SCC(=O)N5CCN(C)CC5)o4)cc3[nH]2)cc1 and report it.
156.6 to 158.7 °C

Find the recorded melting point belonging to O=C(CSc1nnc(-c2ccc3nc(-c4ccc(O)cc4)[nH]c3c2)o1)N1CCN(c2ccccc2)CC1 and report it.
271.1 to 273.4 °C

Find the recorded melting point belonging to COc1ccc(-c2nc3ccc(-c4nnc(SCC(=O)N5CCN(c6ccccn6)CC5)o4)cc3[nH]2)cc1 and report it.
168.3 to 170.1 °C

Find the recorded melting point belonging to COc1ccc(-c2nc3ccc(-c4nnc(SCC(=O)N5CCN(c6ncccn6)CC5)o4)cc3[nH]2)cc1 and report it.
118.7 to 120.3 °C

Now, please, on to the next compound.
Find the recorded melting point belonging to CCOc1ccc(-c2nc3ccc(-c4nnc(SCC(=O)N5CCN(c6ccccc6)CC5)o4)cc3[nH]2)cc1 and report it.
262.5 to 263.9 °C

----------
Tested on: HepG2 (human liver carcinoma cell line)
EXPERIMENTAL_DETAILS: MTT cytotoxicity assay, HepG2
Type: cell-based
ASSAY_SETUP: Homo sapiens, read-out: IC50 against HepG2
pIC50: −log10 of the molar value.
MEASURED_METRIC: pIC50

Find the recorded pIC50 belonging to COc1ccc(-c2nc3ccc(-c4nnc(SCC(=O)N5CCN(C)CC5)o4)cc3[nH]2)cc1 and report it.
≤ 4.00

Find the recorded pIC50 belonging to CCOc1ccc(-c2nc3ccc(-c4nnc(SCC(=O)N5CCN(C)CC5)o4)cc3[nH]2)cc1 and report it.
≤ 4.00

Find the recorded pIC50 belonging to COc1ccc(-c2nc3ccc(-c4nnc(SCC(=O)N5CCN(c6ccccn6)CC5)o4)cc3[nH]2)cc1 and report it.
≤ 4.00

Find the recorded pIC50 belonging to O=C(CSc1nnc(-c2ccc3nc(-c4ccc(O)cc4)[nH]c3c2)o1)N1CCN(c2ccccc2)CC1 and report it.
4.66

Find the recorded pIC50 belonging to CCN1CCN(C(=O)CSc2nnc(-c3ccc4nc(-c5ccc(O)cc5)[nH]c4c3)o2)CC1 and report it.
≤ 4.00

Find the recorded pIC50 belonging to O=C(CSc1nnc(-c2ccc3nc(-c4ccc(O)cc4)[nH]c3c2)o1)N1CCN(c2ccccn2)CC1 and report it.
≤ 4.00

Find the recorded pIC50 belonging to CCOc1ccc(-c2nc3ccc(-c4nnc(SCC(=O)N5CCN(CC)CC5)o4)cc3[nH]2)cc1 and report it.
≤ 4.00

Find the recorded pIC50 belonging to CN1CCN(C(=O)CSc2nnc(-c3ccc4nc(-c5ccc(O)cc5)[nH]c4c3)o2)CC1 and report it.
5.24

----------
Tested on: HepG2 (human liver carcinoma cell line)
EXPERIMENTAL_DETAILS: MTT cytotoxicity assay, HepG2
Type: cell-based
ASSAY_SETUP: Homo sapiens, read-out: IC50 against HepG2
MEASURED_METRIC: IC50

As a guide, the following entries are already answered.
Please tell me: IC50 of CCOc1ccc(-c2nc3ccc(-c4nnc(SCC(=O)N5CCN(c6ncccn6)CC5)o4)cc3[nH]2)cc1 [5o] , system HepG2 (human liver carcinoma cell line)?
59.4 µM

Please tell me: IC50 of CCOc1ccc(-c2nc3ccc(-c4nc5cc(N6CCN(C)CC6)ccc5[nH]4)cc3[nH]2)cc1 [Hoechst 33342, reference compound] , system HepG2 (human liver carcinoma cell line)?
27.8 µM

Please tell me: IC50 of COc1ccc(-c2nc3ccc(-c4nnc(SCC(=O)N5CCN(c6ccccc6)CC5)o4)cc3[nH]2)cc1 [5h] , system HepG2 (human liver carcinoma cell line)?
≥ 100 µM

Please tell me: IC50 of COc1cccc2c1C(=O)c1c(O)c3c(c(O)c1C2=O)C[C@@](O)(C(=O)CO)C[C@@H]3O[C@H]1C[C@H](N)[C@H](O)[C@H](C)O1 [Dox., doxorubicin, reference compound] , system HepG2 (human liver carcinoma cell line)?
16.5 µM

Please tell me: IC50 of O=C(CSc1nnc(-c2ccc3nc(-c4ccc(O)cc4)[nH]c3c2)o1)N1CCN(c2ncccn2)CC1 [5e] , system HepG2 (human liver carcinoma cell line)?
≥ 100 µM

Please tell me: IC50 of CCN1CCN(C(=O)CSc2nnc(-c3ccc4nc(-c5ccc(OC)cc5)[nH]c4c3)o2)CC1 [5g] , system HepG2 (human liver carcinoma cell line)?
≥ 100 µM

Please tell me: IC50 of CCOc1ccc(-c2nc3ccc(-c4nnc(SCC(=O)N5CCN(c6ccccc6)CC5)o4)cc3[nH]2)cc1 [5m] , system HepG2 (human liver carcinoma cell line)?
≥ 100 µM

Now, please, on to the next compound.
Please tell me: IC50 of COc1ccc(-c2nc3ccc(-c4nnc(SCC(=O)N5CCN(c6ncccn6)CC5)o4)cc3[nH]2)cc1 [5j] , system HepG2 (human liver carcinoma cell line)?
≥ 100 µM
